src = the Immune Epitope Database (IEDB)

molecular target: HLA-A*02:01; assay: IEDB peptide-MHC binding, purified MHC/competitive/radioactivity; bounds were set here for any values at or beyond the usual limits of such assays; conditions: source organism: Vaccinia virus WR
recorded endpoint: log10 of IC50 (log10 of the value in nM)

>  <chain>
MTPSPFYTVM

>  <target>
HLA-A*02:01

>  <log10 of IC50>
3.23

$$$$
>  <chain>
SQIFNIISYI

>  <target>
HLA-A*02:01

>  <log10 of IC50>
2.05

$$$$
>  <chain>
RTLLPILLL

>  <target>
HLA-A*02:01

>  <log10 of IC50>
2.49

$$$$
>  <chain>
DVDMDFDLNI

>  <target>
HLA-A*02:01

>  <log10 of IC50>
3.66

$$$$
>  <chain>
STDQDTMLFA

>  <target>
HLA-A*02:01

>  <log10 of IC50>
3.55

$$$$
>  <chain>
GLKIEEIEKV

>  <target>
HLA-A*02:01

>  <log10 of IC50>
1.81

$$$$
>  <chain>
AVVYSTCTV

>  <target>
HLA-A*02:01

>  <log10 of IC50>
2.02

$$$$
>  <chain>
KIDKLTFQI

>  <target>
HLA-A*02:01

>  <log10 of IC50>
2.13

$$$$
>  <chain>
SMYVIPDELI

>  <target>
HLA-A*02:01

>  <log10 of IC50>
2.58

$$$$
>  <chain>
ITDNGPMPYM

>  <target>
HLA-A*02:01

>  <log10 of IC50>
2.67

$$$$
>  <chain>
GVSGLYIPGT

>  <target>
HLA-A*02:01

>  <log10 of IC50>
3.67

$$$$
>  <chain>
IVMDNDDNIL

>  <target>
HLA-A*02:01

>  <log10 of IC50>
2.95

$$$$
>  <chain>
GIIITVGMLI

>  <target>
HLA-A*02:01

>  <log10 of IC50>
2.98

$$$$
>  <chain>
EVNDTHYTV

>  <target>
HLA-A*02:01

>  <log10 of IC50>
3.49

$$$$
>  <chain>
ILFQNNDINA

>  <target>
HLA-A*02:01

>  <log10 of IC50>
2.74

$$$$
>  <chain>
FLIVSLCPT

>  <target>
HLA-A*02:01

>  <log10 of IC50>
0.18

$$$$
>  <chain>
GLTTHCTKL

>  <target>
HLA-A*02:01

>  <log10 of IC50>
2.79

$$$$
